Tested on: 422866-222-R5-J1-PDC complex spheroids viability
Assay: Anticancer human tumor 422866-222-R5-J1-PDC patient-derived pancreatic adenocarcinoma cell line growth inhibition [RAS]
Conditions: second compound 0.3 µM; first compound 0.0316 µM; active compounds read low
Source text: RAS pathway inhibitors in Combinations in Complex Spheroids A high-throughput screen of multi-cell type tumor spheroids was designed to identify active combinations of RAS pathway inhibitors and targeted small molecules. Complex spheroids include a stromal component modeled by human endothelial cells (HUVEC) and fibroblasts modeled by human mesenchymal stem cells (MSCs). […] Compounds. […] If the clinical Cmax for an agent had not been determined, the highest concentration tested was 10 microM. […]
value type: viability, T/C

In the examples that follow, each entry is paired with its recorded viability, T/C.
{"columns": ["compound", "target entity", "value type", "measured value"],
 "data": [
  ["O=C(c1ccc(F)c(F)c1Nc1ccc(I)cc1F)N1CC(O)([C@@H]2CCCCN2)C1 + CCn1c(-c2cc(N3CCN(C)CC3)cnc2C(C)OC)c2c3cc(ccc31)-c1csc(n1)CC(NC(=O)C1CC1C)C(=O)N1CCCC(N1)C(=O)OCC(C)(C)C2", "422866-222-R5-J1-PDC complex spheroids viability", "viability, T/C", "15%"],
  ["NC1c2ccccc2OC12CCN(c1cnc3c(N4CCCc5ncccc54)n[nH]c3n1)CC2 (stereo not drawn) + CCn1c(-c2cccnc2C(C)OC)c2c3cc(ccc31)N1CCOC(CC(NC(=O)C(C(C)C)N(C)C(=O)C3(F)CCN(C(=O)C#CC(C)(C)N(C)C)CC3)C(=O)N3CCCC(N3)C(=O)OCC(C)(C)C2)C1", "422866-222-R5-J1-PDC complex spheroids viability", "viability, T/C", "11.3%"],
  ["C=CC(=O)N1CCN(c2nc(OCC3CCCN3C)nc3c(F)c(-c4nc(N)cc(C)c4C(F)(F)F)c(Cl)cc23)C(C)C1 (stereo not drawn) + CCn1c(-c2cccnc2C(C)OC)c2c3cc(ccc31)N1CCOC(CC(NC(=O)C(C(C)C)N(C)C(=O)C3(F)CCN(C(=O)C#CC(C)(C)N(C)C)CC3)C(=O)N3CCCC(N3)C(=O)OCC(C)(C)C2)C1", "422866-222-R5-J1-PDC complex spheroids viability", "viability, T/C", "20.5%"],
  ["C=CC(=O)N1CCN(c2nc(OCC3CCCN3C)nc3c(F)c(-c4nc(N)cc(C)c4C(F)(F)F)c(Cl)cc23)C(C)C1 (stereo not drawn) + CCn1c(-c2cc(N3CCN(C)CC3)cnc2C(C)OC)c2c3cc(ccc31)-c1csc(n1)CC(NC(=O)C1CC1C)C(=O)N1CCCC(N1)C(=O)OCC(C)(C)C2", "422866-222-R5-J1-PDC complex spheroids viability", "viability, T/C", "21.7%"],
  ["NC1c2ccccc2OC12CCN(c1cnc3c(N4CCCc5ncccc54)n[nH]c3n1)CC2 (stereo not drawn) + CCn1c(-c2cc(N3CCN(C)CC3)cnc2C(C)OC)c2c3cc(ccc31)-c1csc(n1)CC(NC(=O)C1CC1C)C(=O)N1CCCC(N1)C(=O)OCC(C)(C)C2", "422866-222-R5-J1-PDC complex spheroids viability", "viability, T/C", "18.6%"]
]}

viability, T/C for CC(Nc1ccc2c(c1)OCCn1cc(N3C(=O)OCC3C(F)F)nc1-2)C(N)=O (stereo not drawn) + CCn1c(-c2cccnc2C(C)OC)c2c3cc(ccc31)N1CCOC(CC(NC(=O)C(C(C)C)N(C)C(=O)C3(F)CCN(C(=O)C#CC(C)(C)N(C)C)CC3)C(=O)N3CCCC(N3)C(=O)OCC(C)(C)C2)C1 ? 10.9%

Same for C[C@@H](NC(=O)c1ncnc(N)c1Cl)c1ncc(C(=O)Nc2cc(C(F)(F)F)c(Cl)cn2)s1 + CCn1c(-c2cc(N3CCN(C)CC3)cnc2C(C)OC)c2c3cc(ccc31)-c1csc(n1)CC(NC(=O)C1CC1C)C(=O)N1CCCC(N1)C(=O)OCC(C)(C)C2 19.5%

Let us now turn to CC1(O)CCCC1n1c(=O)c(C(F)F)cc2cnc(NC3CCN(S(C)(=O)=O)CC3)nc21 (stereo not drawn) + CCn1c(-c2cc(N3CCN(C)CC3)cnc2C(C)OC)c2c3cc(ccc31)-c1csc(n1)CC(NC(=O)C1CC1C)C(=O)N1CCCC(N1)C(=O)OCC(C)(C)C2 18.9%

###

Tested on: 422866-222-R5-J1-PDC complex spheroids viability
Assay: Anticancer human tumor 422866-222-R5-J1-PDC cell line growth inhibition [RAS];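 also: spheroids exposed to compounds for 7 days; 100% = DMSO vehicle control viability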
Conditions: second compound 1 µM; first compound 0.316 µM; active compounds read low
Text: RAS pathway inhibitors in Combinations in Complex Spheroids A high-throughput screen of multi-cell type tumor spheroids was designed to identify active combinations of RAS pathway inhibitors and targeted small molecules. Complex spheroids include a stromal component modeled by human endothelial cells (HUVEC) and fibroblasts modeled by human mesenchymal stem cells (MSCs). […] Compounds. […] If the clinical Cmax for an agent had not been determined, the highest concentration tested was 10 microM. […]
value type: viability, T/C

{"columns": ["molecule", "target entity", "value type", "measured value"],
 "data": [
  ["CCC(CC)c1cc(NC2CCC(N)C2)n2nccc2n1 (stereo not given) + C=CC(=O)N1CCN(c2nc(OCC3CCCN3C)nc3c(F)c(-c4nc(N)cc(C)c4C(F)(F)F)c(Cl)cc23)C(C)C1", "422866-222-R5-J1-PDC complex spheroids viability", "viability, T/C", "28.9%"],
  ["C=CC(=O)N1CCN(c2nc(OCC3CCCN3C)nc3c(F)c(-c4nc(N)cc(C)c4C(F)(F)F)c(Cl)cc23)C(C)C1 (stereo not given) + C#Cc1c(F)ccc2cc(O)cc(-c3ncc4c(N5CC6CCC(C5)N6)nc(OCC56CCCN5CC(F)C6)nc4c3F)c12", "422866-222-R5-J1-PDC complex spheroids viability", "viability, T/C", "18.8%"],
  ["C=CC(=O)Nc1cc(Nc2nccc(-c3cn(C)c4ccccc34)n2)c(OC)cc1N(C)CCN(C)C + C#Cc1c(F)ccc2cc(O)cc(-c3ncc4c(N5CC6CCC(C5)N6)nc(OCC56CCCN5CC(F)C6)nc4c3F)c12", "422866-222-R5-J1-PDC complex spheroids viability", "viability, T/C", "33.8%"],
  ["CC(C)NCC(C(=O)N1CCN(c2ncnc3c2C(C)CC3O)CC1)c1ccc(Cl)cc1 (stereo not given) + C=CC(=O)N1CCN(c2nc(OCC3CCCN3C)nc3c(F)c(-c4nc(N)cc(C)c4C(F)(F)F)c(Cl)cc23)C(C)C1", "422866-222-R5-J1-PDC complex spheroids viability", "viability, T/C", "16.7%"]
]}

Name the reported viability, T/C value associated with the molecule Cc1nc(N2CCC3(CC2)COC(C)C3N)c(CO)nc1Sc1ccnc(N)c1Cl (stereo not given) + C=CC(=O)N1CCN(c2nc(OCC3CCCN3C)nc3c(F)c(-c4nc(N)cc(C)c4C(F)(F)F)c(Cl)cc23)C(C)C1 19.2%

###

Tested on: 422866-222-R5-J1-PDC complex spheroids viability
Assay: Anticancer human tumor 422866-222-R5-J1-PDC cell line growth inhibition [RAS];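 also: spheroids exposed to compounds for 7 days; 100% = DMSO vehicle control viability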
Settings: second compound 0.316 µM; first compound 0.0316 µM; active compounds read low
Excerpt: RAS pathway inhibitors in Combinations in Complex Spheroids A high-throughput screen of multi-cell type tumor spheroids was designed to identify active combinations of RAS pathway inhibitors and targeted small molecules. Complex spheroids include a stromal component modeled by human endothelial cells (HUVEC) and fibroblasts modeled by human mesenchymal stem cells (MSCs). […] Compounds. […] If the clinical Cmax for an agent had not been determined, the highest concentration tested was 10 microM. […]
Please note: viability, T/C exactly at 20% is NOT MET. Only values below 20% get MET.

Solved entries:
{"columns": ["compound", "cat"],
 "data": [
  ["CC(Nc1ccc2c(c1)OCCn1cc(N3C(=O)OCC3C(F)F)nc1-2)C(N)=O (stereo not given) + C=CC(=O)N1CCN(c2nc(OCC3CCCN3C)nc3c(F)c(-c4nc(N)cc(C)c4C(F)(F)F)c(Cl)cc23)C(C)C1", "MET"],
  ["CC1(O)CCCC1n1c(=O)c(C(F)F)cc2cnc(NC3CCN(S(C)(=O)=O)CC3)nc21 (stereo not given) + C=CC(=O)N1CCN(c2nc(OCC3CCCN3C)nc3c(F)c(-c4nc(N)cc(C)c4C(F)(F)F)c(Cl)cc23)C(C)C1", "NOT MET"],
  ["NC1c2ccccc2OC12CCN(c1cnc3c(N4CCCc5ncccc54)n[nH]c3n1)CC2 (stereo not given) + C=CC(=O)N1CCN(c2nc(OCC3CCCN3C)nc3c(F)c(-c4nc(N)cc(C)c4C(F)(F)F)c(Cl)cc23)C(C)C1", "MET"]
]}

Is 20% strictly greater than the compound's reported viability, T/C? compound: O=C(c1ccc(F)c(F)c1Nc1ccc(I)cc1F)N1CC(O)([C@@H]2CCCCN2)C1 + C#Cc1c(F)ccc2cc(O)cc(-c3ncc4c(N5CC6CCC(C5)N6)nc(OCC56CCCN5CC(F)C6)nc4c3F)c12 NOT MET
